Values compiled from patent US20260209362A1.

For each entry below, report its ELISA binding mIL-12RB2/control value.
target.entity: T1, biotinylated recombinant mouse IL-12Rβ2 (mouse, UniProt P97378 24-637, random biotinylated)
T1 construct: Recombinant protein produced in-house, biotinylated; also called mIL-12RB2; mouse IL-12RB2
T1 sequence: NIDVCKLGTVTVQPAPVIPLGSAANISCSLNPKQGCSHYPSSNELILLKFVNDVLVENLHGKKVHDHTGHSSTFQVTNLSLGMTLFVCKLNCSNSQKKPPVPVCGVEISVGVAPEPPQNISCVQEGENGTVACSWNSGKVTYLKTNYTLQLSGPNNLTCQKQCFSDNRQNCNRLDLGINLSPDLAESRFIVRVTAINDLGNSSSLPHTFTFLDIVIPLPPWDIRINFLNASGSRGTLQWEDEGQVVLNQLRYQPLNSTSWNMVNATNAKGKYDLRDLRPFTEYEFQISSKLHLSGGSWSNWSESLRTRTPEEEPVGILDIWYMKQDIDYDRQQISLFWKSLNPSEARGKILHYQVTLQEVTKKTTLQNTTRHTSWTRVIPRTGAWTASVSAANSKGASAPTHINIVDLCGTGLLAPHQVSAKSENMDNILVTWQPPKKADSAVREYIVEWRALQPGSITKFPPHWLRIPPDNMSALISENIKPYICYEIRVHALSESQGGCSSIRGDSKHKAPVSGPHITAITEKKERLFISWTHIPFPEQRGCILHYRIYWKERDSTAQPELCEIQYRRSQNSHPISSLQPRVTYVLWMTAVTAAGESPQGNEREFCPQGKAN
protocol.text: ELISA, periplasmic extract on biotinylated mIL-12Rβ2, signal over control wells
Give the quantity in ratio, number only.

### Prompt Which ELISA binding mIL-12RB2/control is reported for this binder? anti-IL-12Rβ2 VHH clone 21051 (VHH, not shown: small tags and cut ends, tested as periplasmic extract; also called 3CAHM40) VHH: QVQLQESGGGSVQAGGSLRLSCAVSGRTVSDYAMGWFRQAPGKEREFVAAMSSSETTVYPNSMKGRITISRDNAKNAVYLQLNALKPEDTAVYYCSMGPIATFQGLARQNEYHYWGQGTQVTVSS
### Response 11.9

### Prompt Would you mind telling me what ELISA binding mIL-12RB2/control value was observed for anti-IL-12Rβ2 VHH clone 20446 (VHH, not shown: small tags and cut ends, tested as periplasmic extract; also called 2CRM32) VHH: QVQLQESGGGLVQPGGSLRLSCTASGSIFASDDMYWYRQAPGKQREFVAYITATNSANYLDSVNGRFTISRDNAKNSVYLQMNSLKPEDTAVYYCNAKQIVGFQIDEYWGQGTQVTVSS ?
### Response 12
